Assignment: determine reported human Plasma stability for the given compounds.
- assay_remarks: Plasma Stability
- Format: in vitro ADME, human
- protocol_conditions: % remaining @ 1 h

Form field: reported human Plasma stability of CC(C)OCCn1c(=S)[nH]c(=O)c2c1ccn2COC(=O)[C@@H](N)C(C)C.O=C(O)C(F)(F)F [Example 296]
12% @ 1 h

# human Plasma stability lookup, item CC(C)OCCn1c(=S)[nH]c(=O)c2c1ccn2COC(=O)CCCCOC(=O)[C@@H](N)Cc1ccccc1.O=C(O)C(F)(F)F [Example 340]
4% remaining

// returns reported human Plasma stability for input CC(C)C[C@@H](NC(=O)OC(C)(C)C)C(=O)OCCCCC(=O)OCn1ccc2c1c(=O)[nH]c(=S)n2CCOC(C)C [Example 347]
16% remaining

Can you look up the measured human Plasma stability of CC(C)OCCn1c(=S)[nH]c(=O)c2c1ccn2COC(=O)CCCCOC(=O)[C@@H](NC(=O)OC(C)(C)C)C(C)C [Example 333] for me?
5% @ 1 h

Fill in the blank: the reported human Plasma stability of CC(C)OCCn1c(SCO)nc(=O)c2[nH]ccc21 [Example 336] is ____.
73% remaining

Given the compound CC(C)OCCn1c(=S)[nH]c(=O)c2c1ccn2COC(=O)CCCCOC(=O)[C@H](N)Cc1ccccc1.O=C(O)C(F)(F)F [Example 341] , what is its reported human Plasma stability?
1% remaining

// returns reported human Plasma stability for input CC(C)OCCn1c(=S)[nH]c(=O)c2c1ccn2COC(=O)CCCCOC(=O)[C@H](N)C(C)C.O=C(O)C(F)(F)F [Example 338]
4% remaining

---

Please go through the items and note down their Papp at 90 min, 10 µM.
- assay_remarks: Caco-2 Permeability Assay
- Type: in vitro ADME, human
- protocol_conditions: human, Caco-2, pH 7.4, Caco-2 monolayer
Please reply with the bare figure in ×10⁻⁶ cm/s and do not write the unit itself.

# Papp at 90 min, 10 µM lookup, item `CC(C)OCCn1c(=S)[nH]c(=O)c2c1ccn2COC(=O)CCCCNC(=O)[C@@H](N)Cc1c[nH]c2ccccc12.O=C(O)C(F)(F)F`
0.519

Can you share its Papp at 90 min, 10 µM? I mean this molecule: `CC(C)OCCn1c(=S)[nH]c(=O)c2c1ccn2COC(=O)CCCCNC(=O)[C@H](Cc1c[nH]c2ccccc12)NC(=O)OC(C)(C)C.O=C(O)C(F)(F)F`
9.15

Need Papp at 90 min, 10 µM, item `CC(C)OCCn1c(=S)[nH]c(=O)c2c1ccn2COC(=O)CCCCNC(=O)[C@@H](N)Cc1ccc(O)cc1.O=C(O)C(F)(F)F`
0.154

I am curious: what Papp at 90 min, 10 µM value has been reported for `CC(C)OCCn1c(=S)[nH]c(=O)c2c1ccn2COC(=O)CCNC(=O)[C@H](Cc1c[nH]c2ccccc12)NC(=O)OC(C)(C)C.O=C(O)C(F)(F)F` ?
5.93

What value of Papp at 90 min, 10 µM has been reported for the following molecule? `CCN(C)C(=O)OCn1ccc2c1c(=O)nc(SCOC(=O)N(C)C(C)C)n2CCOC(C)C.O=C(O)C(F)(F)F`
14.1

So what's the measured Papp at 90 min, 10 µM for this one? `CSCC[C@H](NC(=O)OCC1c2ccccc2-c2ccccc21)C(=O)NCCC(=O)OCn1ccc2c1c(=O)[nH]c(=S)n2CCOC(C)C.O=C(O)C(F)(F)F`
5.79

Which Papp at 90 min, 10 µM is reported for this molecule? `CC(C)OCCn1c(SCOC(=O)N(C)CCc2ccccc2)nc(=O)c2[nH]ccc21.O=C(O)C(F)(F)F`
30.9

What value of Papp at 90 min, 10 µM has been recorded for this entry: CCOC(=O)N1CCCC1C(=O)NCCC(=O)OCn1ccc2c1c(=O)[nH]c(=S)n2CCOC(C)C.O=C(O)C(F)(F)F (stereo not shown)
0.736

Name the recorded Papp at 90 min, 10 µM for CC(C)OCCn1c(=S)[nH]c(=O)c2c1ccn2COC(=O)CCNC(=O)C1CCCN1C(=O)OC(C)C.O=C(O)C(F)(F)F (stereo not shown) .
2.26

# input molecule: COC(=O)N1CCCC1C(=O)NCCCCC(=O)OCn1ccc2c1c(=O)[nH]c(=S)n2CCOC(C)C.O=C(O)C(F)(F)F (stereo not shown) ; wanted: its Papp at 90 min, 10 µM
0.971

---

Field: Papp at 90 min, 10 µM. Provide a value for each of the molecules that follow.
- assay_remarks: Caco-2 Permeability Assay
- Assay type: in vitro ADME, human
- protocol_conditions: human, Caco-2, pH 7.4, Caco-2 monolayer
Field: numeric (×10⁻⁶ cm/s). Do not append units.

Fill in the blank: the reported Papp at 90 min, 10 µM of `CC(C)OCCn1c(SCOC(=O)CCCOC(=O)[C@@H](Cc2ccccc2)NC(=O)OC(C)(C)C)nc(=O)c2c1ccn2COC(=O)CCCOC(=O)[C@@H](Cc1ccccc1)NC(=O)OC(C)(C)C` is ____.
1.63

What measured Papp at 90 min, 10 µM goes with `CC(C)CN(C)C(=O)OCSc1nc(=O)c2c(ccn2COC(=O)N(C)CC(C)C)n1CCOC(C)C` ?
31.3

Can you share its Papp at 90 min, 10 µM? I mean this molecule: CCOC(=O)N1CCCC1C(=O)NCCCCC(=O)OCn1ccc2c1c(=O)[nH]c(=S)n2CCOC(C)C.O=C(O)C(F)(F)F (stereo not shown)
1.86

Entry `CC(C)OCCn1c(SCOC(=O)N(C)c2ccccc2Cl)nc(=O)c2[nH]ccc21` : reported Papp at 90 min, 10 µM = ?
15.4

Consider the molecule `CC(C)CN(C)C(=O)OCSc1nc(=O)c2[nH]ccc2n1CCOC(C)C` and give its measured Papp at 90 min, 10 µM.
23.7

So what's the measured Papp at 90 min, 10 µM for this one? `CC(C)OCCn1c(=S)[nH]c(=O)c2c1ccn2COC(=O)CCCCCCCCCCC(=O)O`
11.7

---

Give measured human Plasma stability for each item. Keep answers brief.
- assay_remarks: Plasma Stability
- Assay type: in vitro ADME, human
- protocol_conditions: % remaining @ 1 h
Express the result in %@ 1 h but write the number alone.

# query: human Plasma stability of entry `CC(C)C[C@H](N)C(=O)OCn1ccc2c1c(=O)n(CO)c(=S)n2CCOC(C)C.O=C(O)C(F)(F)F`
12

Can you share its human Plasma stability? I mean this compound: `CC(C)C[C@@H](N)C(=O)OCn1c(=O)c2c(ccn2COC(=O)[C@H](N)CC(C)C)n(CCOC(C)C)c1=S.O=C(O)C(F)(F)F.O=C(O)C(F)(F)F`
17

---

- assay_remarks: Caco-2 Permeability Assay
- Type: in vitro ADME, human
- protocol_conditions: human, Caco-2, pH 7.4
Please go through the items and note down their Papp at 90 min, 10 µM.

Name the reported Papp at 90 min, 10 µM value associated with the molecule CC(C)C[C@H](N)C(=O)OCn1ccc2c1c(=O)[nH]c(=S)n2CCOC(C)C.O=C(O)C(F)(F)F [Example 320]
< 0.259 ×10⁻⁶ cm/s

Which value of Papp at 90 min, 10 µM has been reported for CC(C)OCCn1c(=S)n(COC(=O)[C@H](C)N)c(=O)c2c1ccn2COC(=O)[C@H](C)N.O=C(O)C(F)(F)F.O=C(O)C(F)(F)F [Example 289] in the records?
< 0.366 ×10⁻⁶ cm/s

For the molecule shown here, CC(C)OCCn1c(=S)n(COC(=O)[C@@H](C)N)c(=O)c2c1ccn2COC(=O)[C@@H](C)N.O=C(O)C(F)(F)F.O=C(O)C(F)(F)F [Example 293] , give the reported Papp at 90 min, 10 µM.
< 1.06 ×10⁻⁶ cm/s

Can you share its Papp at 90 min, 10 µM? I mean this molecule: CC(C)C[C@@H](N)C(=O)OCn1c(=O)c2c(ccn2COC(=O)[C@H](N)CC(C)C)n(CCOC(C)C)c1=S.O=C(O)C(F)(F)F.O=C(O)C(F)(F)F [Example 326]
< 0.338 ×10⁻⁶ cm/s

I would be grateful if you could share the reported Papp at 90 min, 10 µM for CC(C)C[C@H](N)C(=O)OCSc1nc(=O)c2c(ccn2COC(=O)[C@@H](N)CC(C)C)n1CCOC(C)C.O=C(O)C(F)(F)F.O=C(O)C(F)(F)F [Example 321] .
< 0.365 ×10⁻⁶ cm/s

Reported Papp at 90 min, 10 µM for CC(C)C[C@H](N)C(=O)OCn1ccc2c1c(=O)n(CO)c(=S)n2CCOC(C)C.O=C(O)C(F)(F)F [Example 323] : what is it?
< 0.355 ×10⁻⁶ cm/s

What value of measured Papp at 90 min, 10 µM is listed for CC(C)OCCn1c(=S)[nH]c(=O)c2c1ccn2COC(=O)[C@@H](N)Cc1ccccc1.O=C(O)C(F)(F)F [Example 308] ?
< 0.364 ×10⁻⁶ cm/s
